# tested-target: Alpha-bungarotoxin (Bungarus multicinctus)
# test-name: alpha-bungarotoxin binders on microarray, profiling panel, artefact control for SMM control protein annotation, biochemical, small-molecule microarray, Alexa647 label, 635/667 nm fluorescence (AID 1117)
# experimental-setup: alpha-BTX-A647 binding fluorescence, higher = more signal
measured-property: composite z-score
API doc: respond with a numeric literal and nothing else, no unit.

>>> measured("COc1ccc(C(=O)Nc2ccc(CN3C(=O)[C@@]4(O[C@@H](CC(=O)N5CCC[C@H]5CO)[C@H]([Si](C)(C)c5ccc(OC)cc5)[C@H]4C)c4ccccc43)cc2)cc1")
1.12
>>> measured("CN1C(=O)C2C=CC(C(O)Cc3ccccc3)N(Nc3ccccc3)C2C1=O (centres undefined)")
0.428
>>> measured("O=C1NC(=O)C2C1C=CC(C(O)c1cccc3ccccc13)N2Nc1ccccn1 (centres undefined)")
0.307

Proceeding to the next molecule to report its composite z-score.
Provide composite z-score, recorded with Alpha-bungarotoxin (Bungarus multicinctus), of [N-]=[N+]=Nc1ccccc1C[C@@]1(C(=O)NCCN2CCOCC2)N=C(c2ccc(OCCCO)cc2)O[C@@H]1c1ccccc1
0.597
